Each record here notes measured growth.
- Test system: SK-MEL-2 melanoma
- Protocol details: NCI-60 one-dose screen, 48 h (100 = growth as untreated, 0 = no growth, -100 = all killed)
- Experimental setup: 10 µM unless noted
This is part of a sample that, as a whole, favours compounds with a hit. Of some 83,000 tested, about 20% had one in any assay.

| Compound | Units label | growth |
| --- | --- | --- |
| NC(=O)c1ccc[n+](Cc2ccc(Cl)cc2Cl)c1 | % | 95.7 |
| N=C1CCC(=N)c2c1c(O)c1ccccc1c2O | % | 117 |
| COc1cc(C2CC(=O)Nc3c2c(C)nn3-c2nc3ccccc3[nH]2)c(OC)c(OC)c1OC (stereo not given) | % | 50 |
| Cc1c(Cl)cc(-n2c(=O)c3ccccc3c3ccccc3c2=O)cc1Cl | % | 98.3 |
| COc1ccc2c(c1)O/C(=C/c1ccc(OCC(=O)c3ccccc3)cc1)C2=O | % | 108 |
| CC(=O)c1nc(Nc2ccc(C)cc2)sc1C | % | 102 |
| C=CCn1c(C)nc2cc(Nc3nc(Cl)nc4ccccc34)ccc21 | % | 99.5 |
| Cc1ccccc1NC(=O)N/C(N)=N/c1nc(-c2cccc([N+](=O)[O-])c2)cs1 | % | 37.3 |
| Cc1ccc(Cl)c(NS(=O)(=O)c2ccc(-c3cnc(C4CC4)o3)cc2)c1 | % | 56.9 |
| O=C(Nc1ccc(-n2cc(-c3ccncc3)c(-c3ccc(Cl)c(O)c3)n2)cc1)N1CCOCC1 | % | 110 |
| Oc1c(CN2CCCC2)cc(COCc2ccc(Br)cc2)c2cccnc12 | % | -18 |
| CC1=CN2C(=O)C3C4=C(CCCC4)SC3N=C2CN1c1c(C)cccc1C (stereo not given) | % | 116 |
| COc1ccccc1NC(=O)N/C(N)=N/c1nc2ccccc2s1 | % | 48.6 |
| N#Cc1c(-c2cccc(Cl)c2)cc(-c2cccc(Cl)c2)[nH]c1=O | % | 67 |
| Cc1nn(-c2ccccc2)c2nc3c(c(-c4ccc(Cl)cc4)c12)CNC1(CCSCC1)N3 | % | 134 |
| O=S(=O)(NCCCNc1cc(-c2c(-c3cccc(O)c3)nc3sccn23)ccn1)c1cccc(Cl)c1 | % | 63.7 |
| Cc1ccc(C(=NN=C(N)N)c2ccc(C)cc2)cc1 | % | -4.66 |
| N#Cc1c(N)nc(NCCO)nc1-c1ccc(F)cc1 | % | 108 |
| C[C@H]1[C@H]2[C@H]3CC[C@@H]4[C@@]5(C)C/C(=C/c6cccnc6)C(=O)C(C)(C)[C@@H]5CC[C@@]4(C)[C@]3(C)CC[C@]23CO[C@]1(C)[C@@H](C(=O)/C=C\c1cccnc1)C3 | % | -25.5 |
| Clc1ccc(-c2c3ccc(=[N+]4CCCCC4)cc-3oc3cc(N4CCCCC4)ccc23)cc1 | % | -77.4 |

----------
Measured growth, listed per entry.
- System: MALME-3M melanoma
- Protocol details: NCI-60 one-dose screen, 48 h (100 = growth as untreated, 0 = no growth, -100 = all killed)
- Experimental setup: 10 µM unless noted
About 83,000 compounds went through this panel and 20% of them were active in at least one assay; those are over-represented in the sample as a whole.

| Molecule | growth / % |
| --- | --- |
| COc1ccc(NC(=O)c2nc(-c3cc(OC)c(OC)c(OC)c3)n(-c3cccc4ccccc34)n2)cc1OC | 52.8 |
| CCOC(CN=Cc1cc(C)c2[nH]c3ccccc3c2c1C)OCC | 124 |
| COc1ccc(C(=O)Nn2c(NCC(=O)N3c4ccccc4Sc4ccccc43)nnc2-c2ccc(O)cc2)cc1 | 98.1 |
| NC(=O)c1ccc[n+](Cc2ccc(Cl)cc2Cl)c1 | 100 |
| COc1cccc(/C=C/C(=O)c2c(C)nc3ccccc3c2/C=C/c2ccc(C)cc2)c1OC | 79.1 |
| CN(C)CC1C(=O)O[C@H]2[C@H]1CC/C(COC(=O)c1cc3ccccc3[nH]1)=C\CC[C@@]1(C)O[C@@H]21 (stereo not given in full) | -44.2 |
| COc1ccc(-c2ccc3c(c2)sc2nc(-c4ccc(F)cc4)cn23)cc1 | 101 |
| COc1ccc(C2C(c3nn[nH]n3)=C(N)Oc3c2ccc2ccccc32)cc1 (stereo not given) | 63.7 |
| CCCCCCCOc1c(OC)cc(C2CC(=O)Nc3c2c(C)nn3-c2nc3ccccc3[nH]2)cc1OC (stereo not given) | -51.5 |
| CC1CC(C(C)(C)C)C(=O)C(C(C)(C)C)C1 (stereo not given) | 105 |
| C(=N\Nc1ncc(-c2cc3cc4c(cc3o2)OCO4)s1)/c1ccco1 | 25 |
| C=C1C(=O)O[C@H]2[C@H]1CC/C(CNC(=O)/C=C/c1ccc(Cl)cc1Cl)=C\CC[C@@]1(C)O[C@@H]21 | -89.8 |
| O=S(=O)(Nc1cccc(Cl)c1)c1ccc(-c2cnc(C3CC3)o2)cc1 | 58.2 |
| S=C(Cc1ccc2c(c1)CCCC2)N1CCOCC1 | 85.6 |
| COc1cccc(-c2nn(-c3ccccc3)cc2-c2ccnc(NCCNC(=O)c3ccccc3)c2)c1 | 95.7 |
| CCCCCS(=O)(=O)Nc1ccc(C(=O)O)cc1 | 98.2 |
| CCn1c(C)nc2cc(C(N)=O)ccc21 | 96.4 |
| O=C1CC(N2C(=O)/C(=C/C(Cl)=C\c3ccc([N+](=O)[O-])cc3)SC2=S)C(=O)N1c1ccc(O)cc1 (stereo not given) | -39 |
| O=C(NCCNc1cc(-c2cn(-c3ccccc3)nc2-c2cccc(O)c2)ccn1)Nc1ccccc1 | 92.3 |
| N#C/C(=C\c1ccc(Br)cc1)n1nnc2cc(F)c(F)cc21 | 65.7 |
